Target: Protein mono-ADP-ribosyltransferase PARP12 (Homo sapiens)
Sequence (Q9H0J9 whole entry): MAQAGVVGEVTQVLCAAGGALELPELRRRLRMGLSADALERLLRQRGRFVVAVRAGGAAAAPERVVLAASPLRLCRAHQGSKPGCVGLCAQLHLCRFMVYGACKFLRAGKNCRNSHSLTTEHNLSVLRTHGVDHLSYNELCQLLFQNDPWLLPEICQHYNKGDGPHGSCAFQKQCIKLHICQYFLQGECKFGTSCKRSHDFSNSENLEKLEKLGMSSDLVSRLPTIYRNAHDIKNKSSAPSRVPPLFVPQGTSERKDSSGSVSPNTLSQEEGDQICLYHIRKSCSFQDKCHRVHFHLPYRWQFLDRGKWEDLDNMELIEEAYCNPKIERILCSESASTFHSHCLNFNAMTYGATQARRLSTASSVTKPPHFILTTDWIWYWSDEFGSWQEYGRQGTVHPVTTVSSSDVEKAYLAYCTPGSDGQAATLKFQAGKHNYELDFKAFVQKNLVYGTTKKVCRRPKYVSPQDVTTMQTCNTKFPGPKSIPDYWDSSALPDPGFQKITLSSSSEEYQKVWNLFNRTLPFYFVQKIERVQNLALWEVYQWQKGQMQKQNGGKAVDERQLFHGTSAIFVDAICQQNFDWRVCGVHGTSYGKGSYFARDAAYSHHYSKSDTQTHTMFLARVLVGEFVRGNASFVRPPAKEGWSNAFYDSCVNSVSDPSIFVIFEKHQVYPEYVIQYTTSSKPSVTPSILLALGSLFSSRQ
value type: pIC50
Quick note: pIC50 values are minus log10 of concentrations in mol/L.

Fill in pIC50 for record O=C(CCOC[C@@H]1CCN1c1cn[nH]c(=O)c1C(F)(F)F)N1CCN2c3ncc(C(F)(F)F)cc3OC[C@@H]2C1
6.44

====

value type: IC50

Specify the recorded IC50 for O=C(CCOC[C@@H]1CCN1c1cn[nH]c(=O)c1C(F)(F)F)N1CCN2c3ncc(C(F)(F)F)cc3OC[C@@H]2C1 , system: Cytochrome P450 2D6 (Homo sapiens).
Sequence (P10635 whole entry): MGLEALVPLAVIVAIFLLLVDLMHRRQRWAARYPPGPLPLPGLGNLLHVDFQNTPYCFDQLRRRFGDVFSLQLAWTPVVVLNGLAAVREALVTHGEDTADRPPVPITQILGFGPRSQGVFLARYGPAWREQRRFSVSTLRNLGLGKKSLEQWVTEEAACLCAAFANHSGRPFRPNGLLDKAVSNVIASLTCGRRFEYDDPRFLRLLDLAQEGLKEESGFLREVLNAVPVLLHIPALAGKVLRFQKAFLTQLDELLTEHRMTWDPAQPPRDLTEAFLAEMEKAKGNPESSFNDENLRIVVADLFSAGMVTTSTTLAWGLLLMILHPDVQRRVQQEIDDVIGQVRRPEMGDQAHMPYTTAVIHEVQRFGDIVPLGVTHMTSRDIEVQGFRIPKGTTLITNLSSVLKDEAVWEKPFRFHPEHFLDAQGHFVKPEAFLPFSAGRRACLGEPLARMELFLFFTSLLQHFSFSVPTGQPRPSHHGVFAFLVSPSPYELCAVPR
> 30 µM

Specify the recorded IC50 for C[C@@H](COCCC(=O)N1CCN(c2ncc(C(F)(F)F)cn2)CC1)Nc1cn[nH]c(=O)c1C(F)(F)F [ATAMPARIB] , system: Cytochrome P450 2D6 (Homo sapiens).
> 30 µM
